Biological target: T1, HLA-A2/NY-ESO peptide complex presented on cells (human)
T1 construct: whole, on cells; also called HLA/NY-ESO; T2 cells supplemented with the NY-ESO peptide
Test: flow cytometry on peptide-pulsed T2 cells, scFv 100 nM
Measured standardized gMFI by item
// print number alone

>>> observed_measurement("NYA-2045 (scFv, also called NYA-2045 tag adduct) scFv: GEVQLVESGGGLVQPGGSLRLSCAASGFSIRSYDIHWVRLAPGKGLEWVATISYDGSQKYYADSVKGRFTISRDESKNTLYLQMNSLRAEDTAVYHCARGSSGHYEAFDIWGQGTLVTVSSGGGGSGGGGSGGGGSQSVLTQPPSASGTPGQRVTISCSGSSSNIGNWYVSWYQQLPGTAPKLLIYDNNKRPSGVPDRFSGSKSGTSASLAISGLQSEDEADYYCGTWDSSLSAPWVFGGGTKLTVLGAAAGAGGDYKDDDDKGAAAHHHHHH")
9.03

query: Any idea what its standardized gMFI is? The binder is NYA-1143 (scFv) scFv: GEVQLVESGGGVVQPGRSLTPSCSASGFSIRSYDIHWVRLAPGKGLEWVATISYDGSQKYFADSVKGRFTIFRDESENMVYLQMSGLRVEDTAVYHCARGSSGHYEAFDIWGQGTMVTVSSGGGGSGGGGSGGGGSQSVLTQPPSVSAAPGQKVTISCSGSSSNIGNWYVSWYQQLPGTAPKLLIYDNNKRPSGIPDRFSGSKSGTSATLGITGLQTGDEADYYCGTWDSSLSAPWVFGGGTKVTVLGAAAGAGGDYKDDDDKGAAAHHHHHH
result: 12.9

query: So what does the record say about standardized gMFI for NYA-1154 (scFv) scFv: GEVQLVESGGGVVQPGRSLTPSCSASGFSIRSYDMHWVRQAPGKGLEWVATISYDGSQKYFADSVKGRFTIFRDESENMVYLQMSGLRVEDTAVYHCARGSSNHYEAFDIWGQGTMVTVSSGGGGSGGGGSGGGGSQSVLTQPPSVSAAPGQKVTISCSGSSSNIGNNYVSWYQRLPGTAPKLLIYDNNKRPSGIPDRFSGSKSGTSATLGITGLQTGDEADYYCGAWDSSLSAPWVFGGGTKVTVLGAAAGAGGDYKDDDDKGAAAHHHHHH ?
result: 9.98

query: Fill in the blank: the reported standardized gMFI of NYA-2143 (scFv) scFv: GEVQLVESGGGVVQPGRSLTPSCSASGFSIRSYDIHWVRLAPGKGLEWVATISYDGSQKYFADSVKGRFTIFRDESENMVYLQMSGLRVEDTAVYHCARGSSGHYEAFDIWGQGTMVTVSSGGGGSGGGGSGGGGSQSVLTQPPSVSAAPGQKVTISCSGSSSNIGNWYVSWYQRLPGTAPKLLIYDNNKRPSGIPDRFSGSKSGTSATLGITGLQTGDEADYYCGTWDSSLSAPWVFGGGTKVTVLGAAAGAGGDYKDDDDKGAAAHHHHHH is ____.
result: 13.1

query: Name the reported standardized gMFI value associated with the binder NYA-2035 (scFv) scFv: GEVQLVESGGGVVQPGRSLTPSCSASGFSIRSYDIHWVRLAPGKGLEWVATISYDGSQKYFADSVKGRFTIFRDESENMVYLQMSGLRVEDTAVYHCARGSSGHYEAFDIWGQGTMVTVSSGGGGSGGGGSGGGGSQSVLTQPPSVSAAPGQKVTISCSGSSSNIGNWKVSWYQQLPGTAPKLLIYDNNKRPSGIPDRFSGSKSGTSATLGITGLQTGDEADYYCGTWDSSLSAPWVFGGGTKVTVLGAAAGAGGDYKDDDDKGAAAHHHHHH
result: 9.94

query: May I ask what standardized gMFI has been recorded for NYA-2061 (scFv, also called NYA-2061 tag adduct) scFv: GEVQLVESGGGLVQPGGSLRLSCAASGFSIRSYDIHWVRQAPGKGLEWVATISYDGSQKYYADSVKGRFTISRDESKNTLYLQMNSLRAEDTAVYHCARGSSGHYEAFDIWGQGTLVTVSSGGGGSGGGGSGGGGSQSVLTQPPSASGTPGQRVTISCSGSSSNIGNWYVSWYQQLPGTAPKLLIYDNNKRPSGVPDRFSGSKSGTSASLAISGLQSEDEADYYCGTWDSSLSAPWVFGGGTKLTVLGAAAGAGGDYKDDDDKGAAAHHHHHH ?
result: 8.62

query: What measured standardized gMFI goes with NYC-0003 (scFv, not shown: small tags and cut ends, also called 3M4E5 scFv; NYC-0003 tag adduct) scFv: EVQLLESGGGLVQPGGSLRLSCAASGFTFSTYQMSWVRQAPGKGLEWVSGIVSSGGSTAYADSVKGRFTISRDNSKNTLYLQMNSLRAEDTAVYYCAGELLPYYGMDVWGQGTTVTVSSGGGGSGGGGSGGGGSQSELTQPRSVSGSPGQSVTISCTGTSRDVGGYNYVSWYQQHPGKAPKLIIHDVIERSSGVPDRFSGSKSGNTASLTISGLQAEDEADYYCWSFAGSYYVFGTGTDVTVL ?
result: 3.74

query: // query standardized gMFI value for entry NYC-0004 (scFv, not shown: small tags and cut ends, also called T1 scFv; NYC-0004 tag adduct) scFv: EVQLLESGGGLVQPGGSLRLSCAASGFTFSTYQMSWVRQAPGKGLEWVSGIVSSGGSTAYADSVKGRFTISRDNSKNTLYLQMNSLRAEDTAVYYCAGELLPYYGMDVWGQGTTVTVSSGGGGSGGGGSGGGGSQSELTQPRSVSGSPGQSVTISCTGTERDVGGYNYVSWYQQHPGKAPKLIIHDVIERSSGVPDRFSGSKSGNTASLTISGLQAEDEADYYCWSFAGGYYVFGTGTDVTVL
result: 6.02

query: Query: standardized gMFI; subject: NYA-1163 (scFv) scFv: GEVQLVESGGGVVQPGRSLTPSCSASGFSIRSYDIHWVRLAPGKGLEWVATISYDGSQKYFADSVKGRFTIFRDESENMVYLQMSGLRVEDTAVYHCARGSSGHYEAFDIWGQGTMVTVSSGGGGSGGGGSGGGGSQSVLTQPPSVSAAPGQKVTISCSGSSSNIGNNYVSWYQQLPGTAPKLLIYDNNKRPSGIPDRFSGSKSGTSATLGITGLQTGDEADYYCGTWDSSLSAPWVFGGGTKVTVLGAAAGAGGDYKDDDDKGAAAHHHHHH
result: 3.67
